biological target: human mPGES-1 (Homo sapiens, UniProt O14684)
Threshold 1 nM: IC50 strictly smaller gives fulfilled, otherwise not fulfilled.

INSERT INTO results (molecule, label_value) VALUES
  ('CCCOc1ccc(-c2nc(O)nc(-c3cc(CNC(=O)C(C)(C)C(F)(F)F)ccc3Cl)n2)cc1 [Example 1-122]', 'not fulfilled'),
  ('CO[C@](C)(C(=O)NCc1ccc(Cl)c(-c2nc(O)nc(-c3ccc(CC(C)C)cc3)n2)c1)C(F)(F)F [Example 1-177]', 'not fulfilled'),
  ('COc1cccc(Cl)c1-c1nc(O)nc(-c2ccc(C(F)(F)F)cc2)n1 [Example 2-4]', 'not fulfilled'),
  ('CCCc1cccc(-c2nc(O)nc(-c3cc(CNC(=O)C(C)(C)C)ccc3Cl)n2)c1 [Example 1-50]', 'fulfilled'),
  ('Cc1ccc(CNC(=O)C(C)(C)C)cc1-c1nc(O)nc(-c2ccc(C(F)(F)F)cc2)n1 [Example 1-48]', 'fulfilled'),
  ('COC(C)(C)C(=O)N(C)Cc1ccc(Cl)c(-c2nc(O)nc(-c3ccccc3)n2)c1 [Example 1-234]', 'not fulfilled'),
  ('Cc1ccc(C(F)(F)F)cc1-c1nc(O)nc(-c2ccc(C(F)(F)F)cc2)n1 [Example 1-9]', 'not fulfilled'),
  ('CC(C)(C)COc1ccc(-c2nc(O)nc(-c3c(Cl)cccc3OCc3ncccn3)n2)cc1 [Example 2-68]', 'not fulfilled'),
  ('CC(C)c1cc(-c2nc(O)nc(-c3cc(CNC(=O)C(C)(C)C(F)(F)F)ccc3Cl)n2)ccc1F [Example 1-117]', 'not fulfilled');

====

Entries annotated with measured PGE2 (%)
test system: prostaglandins in guinea pig secondary aqueous humor; assay: Effect on prostaglandin composition in guinea pig aqueous humor (instillation of 0.003% ophthalmic solution, LC/MS/MS); type: in vivo, Hartley male guinea pig; conditions: 24 hr after instillation of 0.003% ophthalmic solution
endpoint: PGE2 (%)

INSERT INTO results (molecular_string, tgt, observed_measurement) VALUES
  ('CC(C)Cc1ccc(-c2nc(O)nc(-c3cc(CNC(=O)C(C)(C)C)ccc3Cl)n2)cc1', 'prostaglandins in guinea pig secondary aqueous humor', 50.7),
  ('Cc1ccc(-c2nc(O)nc(-c3cc(CNC(=O)C(C)(C)C(F)(F)F)ccc3Cl)n2)cc1C', 'prostaglandins in guinea pig secondary aqueous humor', 69),
  ('CC(C)(C(=O)NCc1ccc(Cl)c(-c2nc(O)nc(-c3ccc(F)c(C4CC4)c3)n2)c1)C(F)(F)F', 'prostaglandins in guinea pig secondary aqueous humor', 56.1),
  ('CC(C)COc1ccc(-c2nc(O)nc(-c3cc(CNC(=O)C4(C(F)(F)F)CC4)ccc3Cl)n2)cc1', 'prostaglandins in guinea pig secondary aqueous humor', 30),
  ('CO[C@](C)(C(=O)NCc1ccc(Cl)c(-c2nc(O)nc(-c3ccc(Cl)c(C)c3)n2)c1)C(F)(F)F', 'prostaglandins in guinea pig secondary aqueous humor', 66.7),
  ('Cc1ccc(-c2nc(O)nc(-c3cc(CNC(=O)C(C)(C)C(F)(F)F)ccc3Cl)n2)cc1Cl', 'prostaglandins in guinea pig secondary aqueous humor', 62.5);

====

Entries annotated with measured log10 IC50
Protein target, amino acids: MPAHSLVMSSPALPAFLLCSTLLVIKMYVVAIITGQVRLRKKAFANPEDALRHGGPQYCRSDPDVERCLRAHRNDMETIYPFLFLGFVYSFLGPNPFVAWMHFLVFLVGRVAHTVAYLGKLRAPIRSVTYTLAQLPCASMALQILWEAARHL
endpoint: log10 IC50 (log10 of the value in nM)

INSERT INTO assay_data (molecular_string, endpoint, observed_measurement) VALUES
  ('CC(C)CC(=O)NCc1ccc(Cl)c(-c2nc(O)nc(-c3ccc(C(F)(F)F)cc3)n2)c1', 'log10 IC50', -0.10),
  ('CCCOc1ccc(-c2nc(O)nc(-c3cc(CNC(=O)[C@@](C)(OC)C(F)(F)F)ccc3Cl)n2)cc1', 'log10 IC50', -0.30),
  ('COCc1ccc(Cl)c(-c2nc(O)nc(-c3ccc(OCC(C)(C)C)cc3)n2)c1', 'log10 IC50', 2.46),
  ('CC(C)c1cccc(-c2nc(O)nc(-c3cc(CNC(=O)C(C)(C)C(F)(F)F)ccc3Cl)n2)c1', 'log10 IC50', 0.08),
  ('CCN(Cc1ccc(Cl)c(-c2nc(O)nc(-c3ccc(OCC(C)(C)C)cc3)n2)c1)C(=O)C(C)(C)C(F)(F)F', 'log10 IC50', 1.85),
  ('CCC(=O)N(C)Cc1ccc(Cl)c(-c2nc(O)nc(-c3ccccc3)n2)c1', 'log10 IC50', 3.76),
  ('CCC(CC)(CO)C(=O)NCc1ccc(Cl)c(-c2nc(O)nc(-c3ccccc3)n2)c1', 'log10 IC50', 1.08),
  ('O=C(O)Cc1ccc(Cl)c(-c2nc(O)nc(-c3ccc(C(F)(F)F)cc3)n2)c1', 'log10 IC50', 2.13),
  ('CC1(C(=O)NCc2ccc(Cl)c(-c3nc(O)nc(-c4ccccc4)n3)c2)CCCC1', 'log10 IC50', -0.22);
